Reference source: PubChem BioAssay AID1259407

# Test system: CCRIS mutagenicity, Ames/micronucleus/aberration tests
# experiment notes: CCRIS mutagenicity studies
# setup conditions: Test System: AMES SALMONELLA TYPHIMURIUM; Strain/Indicator: TA98; Metabolic Activation: NONE; Method: PREINCUBATION
# From the text: The CCRIS database contains chemical records with carcinogenicity, mutagenicity, tumor promotion, and tumor inhibition test results. It was developed by the National Cancer Institute (NCI). Data are derived from studies cited in primary journals, current awareness tools, NCI reports, and other sources. Test results have been reviewed by experts in carcinogenesis and mutagenesis. CCRIS provides historical information from the years 1985 - 2011. It is no longer updated. […]
Active and inactive are the calls of the source. No rule for the calls is given here.
Please reply with one of these outcomes: active, inactive

Input line: Fill in: this test's call for `CCCCCOc1cccc(NC(=O)O[C@@H]2CCCC[C@H]2N2CCCC2)c1` is ___
Output line: inactive

Input line: Fill in: this test's call for `Nc1ccc(Oc2cccc(Oc3ccc(N)cc3)c2)cc1` is ___
Output line: inactive

Input line: Fill in: this test's call for `CNC[C@H](O)c1ccc(O)c(O)c1` is ___
Output line: inactive

Input line: Fill in: this test's call for `Nc1cc([N+](=O)[O-])ccc1C(=O)O` is ___
Output line: active

Input line: Fill in: this test's call for `Nc1ccc(-c2ccccc2)cc1` is ___
Output line: inactive

Input line: Fill in: this test's call for C=C(C)C(=O)OCC(Br)CBr (configuration not stated) is ___
Output line: inactive

Input line: Fill in: this test's call for `CC(C)Oc1ccc(Nc2ccccc2)cc1` is ___
Output line: inactive

Input line: Fill in: this test's call for `N#C/C=C/C#N` is ___
Output line: inactive

Input line: Fill in: this test's call for `CN(C)CCN(Cc1ccsc1)c1ccccn1` is ___
Output line: inactive

Input line: Fill in: this test's call for `CC(=O)Nc1cccc(N)c1` is ___
Output line: inactive

Input line: Fill in: this test's call for `CCCCOC(=O)c1ccccc1C(=O)OCc1ccccc1` is ___
Output line: inactive

Input line: Fill in: this test's call for `CN(C)CCO` is ___
Output line: inactive

Input line: Fill in: this test's call for `Cc1ccc([N+](=O)[O-])cc1C` is ___
Output line: inactive

Input line: Fill in: this test's call for `O=c1nc(O)n(Cl)c(=O)n1Cl` is ___
Output line: inactive

Input line: Fill in: this test's call for `O=[N+]([O-])c1ccc(Nc2ccccc2O)c([N+](=O)[O-])c1` is ___
Output line: active

Input line: Fill in: this test's call for `O=[N+]([O-])c1ccc2nc3ccc([N+](=O)[O-])cc3nc2c1` is ___
Output line: active

Input line: Fill in: this test's call for `C[C@H](CCC(=O)O)[C@H]1CC[C@H]2[C@@H]3CC[C@@H]4C[C@@H](O)CC[C@]4(C)[C@H]3CC(=O)[C@]12C` is ___
Output line: inactive

Input line: Fill in: this test's call for `Nc1c(C(=O)N/N=C/c2ccccc2)[nH]c2ccccc12` is ___
Output line: inactive

Input line: Fill in: this test's call for CC(N)CCN (configuration not stated) is ___
Output line: inactive

Input line: Fill in: this test's call for `CC(=O)O[C@]1(C(C)=O)CC[C@H]2[C@@H]3C[C@H](C)C4=CC(=O)CC[C@]4(C)[C@H]3CC[C@@]21C` is ___
Output line: inactive

Input line: Fill in: this test's call for `Cc1cnc2ccc3c(ncn3C)c2n1` is ___
Output line: inactive

Input line: Fill in: this test's call for `CC(C)=CCC/C(C)=C/C=O` is ___
Output line: inactive

Input line: Fill in: this test's call for CCSCCC(N)C(=O)O (configuration not stated) is ___
Output line: inactive

Input line: Fill in: this test's call for `COC(=O)c1oc([N+](=O)[O-])c(-c2ccccc2)c1-c1ccccc1` is ___
Output line: active

Input line: Fill in: this test's call for `O=[N+]([O-])c1cc(Cl)c(Cl)c(Cl)c1Cl` is ___
Output line: inactive

Input line: Fill in: this test's call for `[N-]=[N+]=[N-]` is ___
Output line: inactive

Input line: Fill in: this test's call for `O=c1[nH][nH]c(=O)c2cc([N+](=O)[O-])ccc12` is ___
Output line: active
